Just for reference, paper PMC7413254 is where these values come from.

Tested on: C6^7G8 parasites
Test: P. falciparum proliferation assay
Type: cell-based, Plasmodium falciparum
Conditions: Plasmodium falciparum, C67G8, 72 h, 37 °C, SYBR Safe, mean ± SEM, n = 5, read-out: IC50 (nM), parasite proliferation, Control
Outcome Measure: IC50 (nM)
Just the number please, in nM, no unit attached.

Report the value of IC50 obtained on C6^7G8 parasites for CCN(CC)CCCC(C)Nc1ccnc2cc(Cl)ccc12 (stereo not shown) [CQ, chloroquine, reference compound] .
87

====

// values below are reported inhibition at 1000 µM
Biological target: PfCRT^Ecu1110 (Plasmodium falciparum, UniProt Q9N623, A220S/I356L/K76T/N326D)
Sequence (Q9N623 whole entry A220S/I356L/K76T/N326D): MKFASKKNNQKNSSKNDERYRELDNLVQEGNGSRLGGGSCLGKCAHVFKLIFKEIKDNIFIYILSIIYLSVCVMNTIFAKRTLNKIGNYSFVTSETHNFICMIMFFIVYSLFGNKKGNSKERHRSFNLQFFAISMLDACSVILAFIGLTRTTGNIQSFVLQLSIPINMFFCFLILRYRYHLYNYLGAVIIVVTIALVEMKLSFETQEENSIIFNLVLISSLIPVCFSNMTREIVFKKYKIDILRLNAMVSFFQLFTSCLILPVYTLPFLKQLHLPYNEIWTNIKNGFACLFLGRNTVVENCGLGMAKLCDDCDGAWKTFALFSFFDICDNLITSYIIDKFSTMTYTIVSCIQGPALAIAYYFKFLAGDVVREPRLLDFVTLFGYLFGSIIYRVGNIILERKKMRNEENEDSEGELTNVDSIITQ
Test: [3H]CQ uptake into Xenopus oocytes, cis-inhibition by unlabelled solute
Assay type: cell-based
Conditions: read-out: Uptake of [3H]CQ (% PfCRTEcu1110 control), cis-inhibition
Just the number please, in %, no unit attached.

Example entries and their recorded answers appear below.
State its inhibition at 1000 µM for this compound: CC(C)[C@H](N)C(=O)O
97

State its inhibition at 1000 µM for this compound: C[C@H](N)C(=O)O
97

State its inhibition at 1000 µM for this compound: N[C@@H](CO)C(=O)O
101

State its inhibition at 1000 µM for this compound: N[C@@H](Cc1c[nH]cn1)C(=O)O
96

State its inhibition at 1000 µM for this compound: NC(=O)CC[C@H](N)C(=O)O
97

State its inhibition at 1000 µM for this compound: CC(C)C[C@H](N)C(=O)O
98

State its inhibition at 1000 µM for this compound: NCCCC[C@H](N)C(=O)O
99

State its inhibition at 1000 µM for this compound: CSCC[C@H](N)C(=O)O
97

---
State its inhibition at 1000 µM for this compound: N[C@@H](Cc1c[nH]c2ccccc12)C(=O)O
97

State its inhibition at 1000 µM for this compound: O=C(O)[C@@H]1CCCN1
96

State its inhibition at 1000 µM for this compound: N[C@@H](CCC(=O)O)C(=O)O
96

State its inhibition at 1000 µM for this compound: N=C(N)NCCC[C@H](N)C(=O)O
97

State its inhibition at 1000 µM for this compound: N[C@@H](CS)C(=O)O
89

State its inhibition at 1000 µM for this compound: N[C@@H](Cc1ccccc1)C(=O)O
96

State its inhibition at 1000 µM for this compound: CC[C@H](C)[C@H](N)C(=O)O
100

State its inhibition at 1000 µM for this compound: C[C@@H](O)[C@H](N)C(=O)O
98

State its inhibition at 1000 µM for this compound: N[C@@H](Cc1ccc(O)cc1)C(=O)O
101

====

Target: PfNT1 (Plasmodium falciparum)
Construct: expressed in transfected cells; host or cells: Xenopus laevis oocytes (stage V-VI), cRNA-injected
Sequence (Q8IDM6 whole entry): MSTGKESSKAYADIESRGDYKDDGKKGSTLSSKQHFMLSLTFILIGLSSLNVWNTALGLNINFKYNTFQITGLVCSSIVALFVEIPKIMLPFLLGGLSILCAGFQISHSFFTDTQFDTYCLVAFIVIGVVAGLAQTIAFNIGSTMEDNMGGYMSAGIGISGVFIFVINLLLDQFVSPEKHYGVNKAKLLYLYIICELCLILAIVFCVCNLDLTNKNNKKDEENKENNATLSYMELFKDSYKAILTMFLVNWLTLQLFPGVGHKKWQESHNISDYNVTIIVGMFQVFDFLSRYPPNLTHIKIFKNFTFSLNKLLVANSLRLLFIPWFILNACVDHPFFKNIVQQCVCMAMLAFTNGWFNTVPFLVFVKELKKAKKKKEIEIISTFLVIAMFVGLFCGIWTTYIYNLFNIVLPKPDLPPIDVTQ
Experiment: cell-based
Type: cell-based
Settings: PfNT1 oocytes; footnote b: highest intracellular concentration tested was 30 mM (solubility); normalised to the oocyte type control (control = 100)
// values below are reported Trans-stimulation data: total [3H]CQ transport
Just the number please, in b, no unit attached.

Example entries and their recorded answers appear below.
State its Trans-stimulation data: total [3H]CQ transport for this sequence: VEPSDTIENVK [VK-11]
98

State its Trans-stimulation data: total [3H]CQ transport for this sequence: VHLTPEEKSAVT [VT-12]
100

State its Trans-stimulation data: total [3H]CQ transport for this sequence: YFPHFDLS [YS-8]
98

State its Trans-stimulation data: total [3H]CQ transport for this sequence: NAVAHVDDMPNALSALSDLH [NH-20, additional peptide, 20 residues]
100

---
State its Trans-stimulation data: total [3H]CQ transport for this sequence: SFGDLSTPDAVMG [SG-13]
98

State its Trans-stimulation data: total [3H]CQ transport for this sequence: LTPEEKSAVTAL [LL-12]
99
